Below is a list of entries, each paired with its recorded Kd value.
Target: T1, EsCas13d, nuclease-dead (Eubacterium siraeum, UniProt B0MS50, R295A;H300A;R849A;H854A)
T1 sequence: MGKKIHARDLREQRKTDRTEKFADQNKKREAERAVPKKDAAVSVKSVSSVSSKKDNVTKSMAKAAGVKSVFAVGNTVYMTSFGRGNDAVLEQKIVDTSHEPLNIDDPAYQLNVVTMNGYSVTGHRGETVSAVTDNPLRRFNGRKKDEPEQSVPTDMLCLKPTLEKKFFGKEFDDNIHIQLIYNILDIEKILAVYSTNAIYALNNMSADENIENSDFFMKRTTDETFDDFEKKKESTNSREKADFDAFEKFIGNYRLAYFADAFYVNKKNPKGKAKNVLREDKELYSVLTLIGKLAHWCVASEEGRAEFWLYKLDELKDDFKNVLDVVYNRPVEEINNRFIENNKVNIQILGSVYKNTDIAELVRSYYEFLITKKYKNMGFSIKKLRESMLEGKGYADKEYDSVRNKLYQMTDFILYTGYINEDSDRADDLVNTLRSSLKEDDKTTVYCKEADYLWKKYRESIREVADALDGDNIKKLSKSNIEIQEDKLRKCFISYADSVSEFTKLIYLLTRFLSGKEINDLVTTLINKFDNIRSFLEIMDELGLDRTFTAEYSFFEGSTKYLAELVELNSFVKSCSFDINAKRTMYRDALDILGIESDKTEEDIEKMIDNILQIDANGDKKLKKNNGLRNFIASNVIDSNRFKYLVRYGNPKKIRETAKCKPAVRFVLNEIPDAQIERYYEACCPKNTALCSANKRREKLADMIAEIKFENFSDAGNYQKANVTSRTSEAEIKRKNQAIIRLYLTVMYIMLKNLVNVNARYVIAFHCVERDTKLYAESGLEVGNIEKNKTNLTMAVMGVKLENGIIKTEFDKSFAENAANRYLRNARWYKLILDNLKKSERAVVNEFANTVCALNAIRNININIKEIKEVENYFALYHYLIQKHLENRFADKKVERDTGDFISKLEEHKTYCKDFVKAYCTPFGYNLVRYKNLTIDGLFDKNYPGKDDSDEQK
Assay: crRNA (strand 1, pre-loaded); Mg2+; 40 mM Tris-HCl pH 7.5, 150 mM NaCl, 6 mM MgCl2, 1 mM DTT, 0.1% Tween-20, 0.2 mg/ml BSA; 25 C; 10 min per concentration, then washed
Settings: tags: His6-TwinStrep-SUMO cleaved; N-terminal SNAP kept (SNAP-Surface 488); label: 3' end held by stalled T7 RNA polymerase
Entry rule: numbers only, all in µM.

target 1 insA 3' of 22,insU 3' of 22 (mixed) RNA 1: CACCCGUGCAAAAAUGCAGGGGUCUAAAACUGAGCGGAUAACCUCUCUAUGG RNA 2: GGGAAUGGAUCCACAUCUACGAAUUCGUACAUCAUAGAGAGGUUAUCCGCUCACCGAGAUCGGAAGAGCACACGU | 0.0125

[in] Identify measured Kd corresponding to target 1 insC 3' of 18,insU 3' of 5 (mixed) RNA 1: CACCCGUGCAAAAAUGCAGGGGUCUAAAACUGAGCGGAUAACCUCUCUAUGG RNA 2: GGGAAUGGAUCCACAUCUACGAAUUCGUACCAUACGAGAGGUUAUCCGUCUCACCGAGAUCGGAAGAGCACACGU
[out] 0.084

[in] Give a short answer stating reported Kd for target 1 insC 3' of 18,insC 3' of 9 (mixed) RNA 1: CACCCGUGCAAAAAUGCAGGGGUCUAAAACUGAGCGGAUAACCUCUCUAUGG RNA 2: GGGAAUGGAUCCACAUCUACGAAUUCGUACCAUACGAGAGGUUACUCCGCUCACCGAGAUCGGAAGAGCACACGU .
[out] 0.058

[in] Provide one value: measured Kd of target 1 insC 3' of 19,insA 3' of 3 (mixed) RNA 1: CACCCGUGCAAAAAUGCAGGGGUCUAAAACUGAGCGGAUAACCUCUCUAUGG RNA 2: GGGAAUGGAUCCACAUCUACGAAUUCGUACCAUCAGAGAGGUUAUCCGCUACACCGAGAUCGGAAGAGCACACGU
[out] 0.0298
